Tested on: anergic human T-cells
measurement_description: Anergic T-cell activation assessed by IFNγ secretion (ionomycin-induced anergy)
Format: cell-based
condition_description: 10 μM, anergic T-cells re-challenged with anti-CD3 and anti-CD28 for 24 hours, read-out: IFNγ Fold change from baseline
reported_property: fold induction at 10 µM

Known results for compounds:
compound | reported_property | result
C[C@H](Cc1nncn1C)c1ccnc(NC(=O)c2cccc(C(F)(F)F)n2)c1 [Compound 302] | fold induction at 10 µM | ≤ 2.5
Cn1cnnc1C(F)(F)[C@](C)(F)c1cccc(N2Cc3c(cc(N4CCNCC4)cc3C(F)(F)F)C2=O)c1 [Compound 442] | fold induction at 10 µM | 2.51 to 4

Pending compound:
Query: Could you tell me which fold induction at 10 µM is on file for C[C@H](Cc1nncn1C)c1cccc(N2Cc3c(cc(CN4CC(O)C4)cc3C(F)(F)F)C2=O)c1 [Compound 393] ?
Reply: > 4.01
